// data source = patent US9227979B2

Quick list: A1 % inhibition per entry.
# measuredTarget: hA1 AR (Homo sapiens (Human), UniProt P30542)
# Sequence (P30542 whole entry): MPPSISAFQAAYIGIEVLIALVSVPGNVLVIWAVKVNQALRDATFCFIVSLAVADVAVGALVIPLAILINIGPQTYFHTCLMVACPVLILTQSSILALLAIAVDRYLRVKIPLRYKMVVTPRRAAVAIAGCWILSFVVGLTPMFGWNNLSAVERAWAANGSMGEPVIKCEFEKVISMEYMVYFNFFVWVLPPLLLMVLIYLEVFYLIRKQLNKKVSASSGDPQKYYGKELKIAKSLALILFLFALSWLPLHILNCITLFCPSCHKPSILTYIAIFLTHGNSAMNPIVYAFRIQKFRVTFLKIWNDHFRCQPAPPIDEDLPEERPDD
# testSummary: Radioligand membrane binding assay at hA1 AR ([3H]R-PIA)
# testContext: Table 3

Below are worked cases with known answers.
1. Cn1cc2c(nc(NC(=O)Nc3ccc(CC(=O)NCCCCN)cc3)n3nc(-c4ccco4)nc23)n1.O=C(O)C(F)(F)F [Compound 18] ... 4% ± 1%
2. Cn1cc2c(nc(NC(=O)Nc3ccc(CC(=O)NCCOCCOCCN)cc3)n3nc(-c4ccco4)nc23)n1.O=C(O)C(F)(F)F [Compound 20] ... 17% ± 3%
3. Cn1cc2c(nc(NC(=O)Nc3ccc(CC(=O)NCCCCCN)cc3)n3nc(-c4ccco4)nc23)n1.O=C(O)C(F)(F)F [Compound 19] ... 6% ± 4%

Answer with A1 % inhibition of Cn1cc2c(nc(NC(=O)Nc3ccc(CC(=O)NCCOCCOCCNC(=O)OC(C)(C)C)cc3)n3nc(-c4ccco4)nc23)n1 [Compound 15] measured for hA1 AR (Homo sapiens (Human), UniProt P30542). 7% ± 5%

Write A1 % inhibition of Cn1cc2c(nc(NC(=O)Nc3ccc(CC(=O)NCCCCNC(=S)Nc4ccc5c(c4)C(=O)OC54c5ccc(O)cc5Oc5cc(O)ccc54)cc3)n3nc(-c4ccco4)nc23)n1 [Compound 23] ; system used: hA1 AR (Homo sapiens (Human), UniProt P30542) 28% ± 8%

Give A1 % inhibition for this entry on hA1 AR (Homo sapiens (Human), UniProt P30542): Cn1cc2c(nc(NC(=O)Nc3ccc(CC(=O)NCCCOCCOCCOCCCNC(=O)OC(C)(C)C)cc3)n3nc(-c4ccco4)nc23)n1 [Compound 16] 11% ± 5%
